Test system: DU-145 prostate
Assay: NCI tumour cell line growth inhibition, 48 h
measure: TGI

molecule: O=[N+]([O-])c1ccc2c(c1)N([O-])C1(CCCCC1)[N+]2=O
TGI: 33.9 µM

molecule: CC(=N\N)/C(C)=N/N=C(C)/C(C)=N/N
TGI: > 100 µM

molecule: Cc1cc2/c(=C\c3ccc(N(C)C)cc3)c3ccccc3n2[n+]1C
TGI: 4.16 µM

molecule: COc1cc2nc(SCc3cc(OC)c(OC)c(OC)c3)n(Cc3ccccc3)c(=O)c2cc1OC
TGI: > 100 µM

molecule: O=C(/C=C/c1ccccc1)CSc1ncn[nH]1
TGI: > 100 µM

Give TGI for all molecules that follow.
1. CCOC(=O)C1=C(O)C2C3CC4C2C(O)=C(C(=O)OCC)C2C1C3C42 (centres undefined)
2. COc1cc(F)c(F)c(Nc2ccc(I)cc2F)c1NS(=O)(=O)C1(C[C@H](O)CO)CC1
3. O=C1c2ccccc2-[n+]2ccc3c([nH]c4ccccc43)c21
4. C/C(=N\N=C(\N)SB(F)F)c1ccc2ccccc2c1
5. Cc1nc(CC#N)n[nH]1

["> 100 µM", "> 10 µM", "2.54 µM", "> 100 µM", "> 100 µM"]

----------
Test system: COLO 205 colon
Test: NCI tumour cell line growth inhibition, 48 h
measure: TGI

molecule: COc1cccc(/C(C#N)=C/c2nc3c(N4CCOCC4)nc(Cl)nc3n2C)c1
meas value: 3.09 µM

Give TGI for all molecules that follow.
1. NC(=O)N/N=C(/CC1C(=O)Oc2ccccc21)c1ccccc1O (stereo not drawn)
2. CCOC(=O)C1=C(Nc2ccc(Cl)cc2Cl)OCC1=O
3. Cc1ccc(NC(=O)CCc2nc(N)nc(N)c2-c2ccccc2)cc1C
4. C#Cc1cccc(N2C(=O)c3c(c(-c4ccccc4)c(-c4ccc(Cc5ccc(-c6c(-c7ccccc7)c7c(c(-c8ccccc8)c6-c6ccccc6)C(=O)N(c6cccc(C#C)c6)C7=O)cc5)cc4)c(-c4ccccc4)c3-c3ccccc3)C2=O)c1
5. CN(CCCCCl)P(=O)(OCCS(=O)(=O)CC(NC(=O)CCC(N)C(=O)O)C(=O)NC(C(=O)O)c1ccccc1)OCC1OC(n2ccc(N)nc2=O)C(F)(F)C1O (stereo not drawn)

> 100 µM
> 100 µM
> 100 µM
66.5 µM
> 100 µM

Give TGI for all molecules that follow.
1. C=C1C(=O)OC2C/C(C)=C/CC/C(C)=C/CCC3(COC(C)=O)OC3CC12 (stereo not drawn)
2. Cn1c2ccccc2c2c3c(c4c5ccccc5n(C)c4c21)C(=O)NC3=O

15.6 µM
> 100 µM

----------
System: LOX IMVI melanoma
Test: NCI tumour cell line growth inhibition, 48 h
measure: TGI

Look over these answered cases.
molecule: Nc1[nH]nc(Nc2ccc(Cl)cc2)c1P(=O)(c1ccccc1)c1ccccc1
measure: TGI
meas value: > 100 µM

molecule: COc1cc(F)c(F)c(Nc2ccc(I)cc2F)c1NS(=O)(=O)C1(C[C@H](O)CO)CC1
measure: TGI
meas value: > 10 µM

Give TGI for all molecules that follow.
1. CC[n+]1oc(C(=O)c2ccc(Cl)cc2)c(-c2ccccc2)c1-c1ccccc1.[Cl][Fe]([Cl])([Cl])[Cl]
2. O=C(/C=C/c1ccccc1)C(Br)C(Br)c1ccccc1 (stereo not drawn)
3. CCOC(=O)Nc1nc2ccc(OC)cc2s1
4. COc1ccc(-c2ccncc2)cc1C(N)=O
5. CCNC(=O)COc1ccc(Br)cc1Br
6. COc1cc2nc(SCc3cc(OC)c(OC)c(OC)c3)n(Cc3ccccc3)c(=O)c2cc1OC

1: > 100 µM; 2: 2.91 µM; 3: > 100 µM; 4: > 25 µM; 5: > 100 µM; 6: > 100 µM
